MEASUREMENT PARAMETERS: a range is the spread between reports

MOL SMILES: O=C(c1ccccc1)c1ccccc1C(F)(F)F
melting point: 60 to 61 °C

MOL SMILES: CCC(C)(C)Cl
melting point: -74 to -73 °C

MOL SMILES: CC(=O)c1ccc(Br)s1
melting point: 94.5 to 95 °C

MOL SMILES: CN1CCN(CCCN2c3ccccc3Sc3ccccc32)CC1
melting point: 52 to 53 °C

MOL SMILES: C[C@H](O)[C@@H](C)O
melting point: 33 to 34.5 °C

MOL SMILES: COc1cc(OC)c(OC)cc1C=O
melting point: 113 to 114 °C

MOL SMILES: CC(=O)NS(=O)(=O)c1ccc(N)cc1
melting point: 182 to 183 °C

====

// values below are reported melting point
MEASUREMENT PARAMETERS: a range is the spread between reports

COMPOUND: Clc1ccc(C(c2ccccc2Cl)C(Cl)(Cl)Cl)cc1 (stereo not given)
melting point: 74.2 to 75 °C
//
COMPOUND: Oc1cc(Cl)c(Cl)cc1Cl
melting point: 65.5 to 69 °C
//
COMPOUND: COC(=O)c1ccc([N+](=O)[O-])cc1
melting point: 95 to 96 °C
//
COMPOUND: CC(C)c1cc(C(C)C)c(C(C)C)cc1C(C)C
melting point: 118 to 119 °C
//
COMPOUND: C=CC(=O)OCC
melting point: -71.2 to -71 °C
//
COMPOUND: COc1ccc(C(=O)O)cc1
melting point: 184 to 185 °C
//
COMPOUND: C[Si](c1ccccc1)(c1ccccc1)c1ccccc1
melting point: 67 to 69.5 °C
//
COMPOUND: Cc1ccc2cccnc2c1
melting point: 36.5 to 39 °C
//
COMPOUND: N#Cc1ccccc1-c1ccccc1
melting point: 38 to 41 °C
//
COMPOUND: Ic1ccc(I)cc1
melting point: 130 to 132 °C
//
COMPOUND: OCc1ccccc1Br
melting point: 80 to 81 °C
//
COMPOUND: CCCCCCCCCCCCC=O
melting point: 14 to 15 °C
//
COMPOUND: ClCC(Cl)(Cl)Cl
melting point: -70.2 to -70 °C
//
COMPOUND: O=C1C=CC(=O)O1
melting point: 52.8 to 54 °C
//
COMPOUND: O=C1OC(=O)c2ccccc21
melting point: 131 to 132 °C

====

MEASUREMENT PARAMETERS: a range is the spread between reports
// values below are reported melting point

MOL SMILES: CCOC(=O)c1ccccc1[N+](=O)[O-]
melting point: 28 to 30 °C

MOL SMILES: NNC(=O)Nc1ccccc1
melting point: 124 to 128 °C

MOL SMILES: CC(C)(C)C(=O)CC#N
melting point: 68 to 71 °C

MOL SMILES: O=Cc1ccc(O)c(O)c1
melting point: 153 to 155 °C

MOL SMILES: CCC#CCCCC
melting point: -104 °C

MOL SMILES: O=C(Oc1cccc(OC(=O)c2ccccc2)c1)c1ccccc1
melting point: 116 to 118 °C

MOL SMILES: CC(=O)c1ccc(Cl)cc1Cl
melting point: 33 to 34 °C

MOL SMILES: Nc1ccncn1
melting point: 150 to 155 °C

MOL SMILES: CC1(C)OC(=O)NC1=O
melting point: 76.5 to 79 °C

MOL SMILES: CCCCCCCCCCCCCC(=O)OC
melting point: 18 to 19 °C

MOL SMILES: OCCOCCO
melting point: -10.4 to -10 °C

MOL SMILES: Cc1cc(Cl)nc2ccccc12
melting point: 55 to 59 °C

MOL SMILES: c1cc2cccc3c4cccc5cccc(c(c1)c23)c54
melting point: 274 to 278 °C

MOL SMILES: Cc1cccc2c(C)cccc12
melting point: 80 to 82 °C

MOL SMILES: O=C(c1ccc(Br)cc1)c1ccc(Br)cc1
melting point: 174 to 177 °C

====

MEASUREMENT PARAMETERS: a range is the spread between reports
MEASURED PROPERTY: melting point

COMPOUND: Nc1ccc(-c2ccccc2)cc1
RECORDED MEASUREMENT: 53 to 54 °C
//
COMPOUND: Cc1ccnc2ccccc12
RECORDED MEASUREMENT: 9.5 to 10 °C
//
COMPOUND: Nc1ccc(Cl)cc1C(=O)c1ccccc1
RECORDED MEASUREMENT: 96 to 99 °C
//
COMPOUND: OC1CCc2ccccc21 (stereo unspecified)
RECORDED MEASUREMENT: 52 to 54.8 °C
//
COMPOUND: Cc1c[nH]cn1
RECORDED MEASUREMENT: 51 to 56 °C
//
COMPOUND: Cl[SiH](Cl)Cl
RECORDED MEASUREMENT: -127 to -126 °C
//
COMPOUND: COc1cccc(C(=O)O)c1O
RECORDED MEASUREMENT: 151 to 152 °C
//
COMPOUND: CC12CCC(CC1)C(C)(C)O2
RECORDED MEASUREMENT: 1 to 1.5 °C
//
COMPOUND: CCOCOCC
RECORDED MEASUREMENT: -66.5 to -66 °C
//
COMPOUND: COS(=O)(=O)OC
RECORDED MEASUREMENT: -32 to -27 °C
//
COMPOUND: O=C1CCO1
RECORDED MEASUREMENT: -34 to -33.4 °C
//
COMPOUND: N#Cc1ccc(-c2ccc(C#N)cc2)cc1
RECORDED MEASUREMENT: 234 to 238 °C
//
COMPOUND: CCC(C(C)C)C(C)C
RECORDED MEASUREMENT: -122 °C
//
COMPOUND: Cn1c(=O)c2c(ncn2C)n(C)c1=O
RECORDED MEASUREMENT: 235 to 238 °C
//
COMPOUND: OCC(Cl)(Cl)Cl
RECORDED MEASUREMENT: 18 to 19 °C
//
COMPOUND: Cc1cc(NS(=O)(=O)c2ccc(N)cc2)no1
RECORDED MEASUREMENT: 167 to 172 °C
//
COMPOUND: c1ccc(OP(Oc2ccccc2)Oc2ccccc2)cc1
RECORDED MEASUREMENT: 23 to 25 °C
//
COMPOUND: N#Cc1cccc2ccccc12
RECORDED MEASUREMENT: 36 to 37.5 °C
//
COMPOUND: CC#CC(=O)O
RECORDED MEASUREMENT: 77 to 78 °C
//
COMPOUND: ClCC1CC1
RECORDED MEASUREMENT: -91 to -90.9 °C
//
COMPOUND: OCCCCCO
RECORDED MEASUREMENT: -18 to -16 °C
//
COMPOUND: O=C1CCC(=O)N1
RECORDED MEASUREMENT: 124 to 126 °C
//
COMPOUND: O=[N+]([O-])c1ccc(Cl)c(Cl)c1Cl
RECORDED MEASUREMENT: 55 to 56 °C
//
COMPOUND: CC(=O)Nc1ccccc1C(=O)O
RECORDED MEASUREMENT: 184 to 186 °C
//
COMPOUND: CC(C)N(CCC(C(N)=O)(c1ccccc1)c1ccccn1)C(C)C (stereo unspecified)
RECORDED MEASUREMENT: 94.8 °C
//
COMPOUND: O=Cc1cccc(O)c1
RECORDED MEASUREMENT: 104 to 108 °C
//
COMPOUND: O=C(Oc1ccc2ccccc2c1)c1ccccc1
RECORDED MEASUREMENT: 105 to 107 °C
//
COMPOUND: C=CCn1c(=O)n(CC=C)c(=O)n(CC=C)c1=O
RECORDED MEASUREMENT: 20.5 to 24 °C
//
COMPOUND: CON(C)C(=O)Nc1ccc(Cl)c(Cl)c1
RECORDED MEASUREMENT: 93 to 93.5 °C
//
COMPOUND: CN1CCCC1=O
RECORDED MEASUREMENT: -24 to -23 °C
//
COMPOUND: ClCCCl
RECORDED MEASUREMENT: -36 to -35 °C
//
COMPOUND: NNC(=O)NN
RECORDED MEASUREMENT: 154 to 158 °C
//
COMPOUND: Cc1cc(Cl)ccc1OC(C)C(=O)O (stereo unspecified)
RECORDED MEASUREMENT: 94 to 95 °C
//
COMPOUND: O=C(O)CCCc1ccc(N(CCCl)CCCl)cc1
RECORDED MEASUREMENT: 64 to 65 °C
//
COMPOUND: O=c1[nH]c(=O)c2nccnc2[nH]1
RECORDED MEASUREMENT: 348 °C
//
COMPOUND: CCCCCCCCCCCCCCC(=O)O
RECORDED MEASUREMENT: 52 to 53 °C
//
COMPOUND: O=C(c1ccc(F)cc1)c1ccc(F)cc1
RECORDED MEASUREMENT: 104 to 108 °C
//
COMPOUND: CCCCCCC(O)C(=O)O (stereo unspecified)
RECORDED MEASUREMENT: 69 to 70 °C
//
COMPOUND: Sc1ncc[nH]1
RECORDED MEASUREMENT: 225 to 230 °C
//
COMPOUND: ClC(Br)Br
RECORDED MEASUREMENT: -22 to -20 °C
//
COMPOUND: C/C=C/C=O
RECORDED MEASUREMENT: -76.5 to -76 °C
//
COMPOUND: CCCOc1ccccc1
RECORDED MEASUREMENT: -28 to -27 °C
//
COMPOUND: c1ccc(OCCOc2ccccc2)cc1
RECORDED MEASUREMENT: 95 to 98 °C
//
COMPOUND: NC(=O)c1c(F)cccc1F
RECORDED MEASUREMENT: 146 to 147 °C
//
COMPOUND: CN(C)C(=O)Nc1ccccc1
RECORDED MEASUREMENT: 132 to 134 °C
//
COMPOUND: CCCCS(=O)CCCC
RECORDED MEASUREMENT: 32.6 to 33 °C
//
COMPOUND: Nc1cccc(Cl)c1
RECORDED MEASUREMENT: -10.4 to -10 °C
//
COMPOUND: CC(C)c1ccc(O)cc1
RECORDED MEASUREMENT: 60 to 62.3 °C
//
COMPOUND: COc1ccc(C#N)cc1
RECORDED MEASUREMENT: 59 to 61.5 °C
//
COMPOUND: Clc1ccc(Cl)cc1
RECORDED MEASUREMENT: 52.1 to 55 °C
//
COMPOUND: CC(Cl)Cl
RECORDED MEASUREMENT: -97 to -96.9 °C
//
COMPOUND: Cc1cccc(C)c1[N+](=O)[O-]
RECORDED MEASUREMENT: 15 to 16 °C
//
COMPOUND: CCC(Br)CC
RECORDED MEASUREMENT: -126 °C
//
COMPOUND: Cc1cc(C)c(C)c(C)c1C
RECORDED MEASUREMENT: 54 to 54.5 °C
//
COMPOUND: Cc1ccc(NC(=O)c2ccccc2)cc1
RECORDED MEASUREMENT: 156 to 158 °C
//
COMPOUND: CCOc1ccc(I)cc1
RECORDED MEASUREMENT: 28 to 29 °C
//
COMPOUND: C=CC(=O)O
RECORDED MEASUREMENT: 12.5 to 13.5 °C
//
COMPOUND: C=CC(=O)NC(C)(C)C
RECORDED MEASUREMENT: 128 to 129 °C
//
COMPOUND: Cc1ccc(Cc2ccccc2)cc1
RECORDED MEASUREMENT: 4.58 to 5 °C
//
COMPOUND: c1ccc(NC2CCCCC2)cc1
RECORDED MEASUREMENT: 15 to 16 °C
//
COMPOUND: CC(=O)Nc1nnc(S(N)(=O)=O)s1
RECORDED MEASUREMENT: 258 to 260 °C
//
COMPOUND: C=Cn1c2ccccc2c2ccccc21
RECORDED MEASUREMENT: 63 to 65 °C
//
COMPOUND: O=C(O)c1cc(Br)cc(Br)c1O
RECORDED MEASUREMENT: 226 to 228 °C
//
COMPOUND: Cc1ccc(-c2ccccc2)cc1
RECORDED MEASUREMENT: 46 to 49.5 °C
//
COMPOUND: CCOP(=O)(OCC)OCC
RECORDED MEASUREMENT: -56.4 to -56 °C
//
COMPOUND: Nc1ccc(Cl)cc1Cl
RECORDED MEASUREMENT: 61 to 63.5 °C
